# IC50 values compiled below
Biological target: human C1s protein (Homo sapiens)
Construct: A104
Sequence (P09871 16-688): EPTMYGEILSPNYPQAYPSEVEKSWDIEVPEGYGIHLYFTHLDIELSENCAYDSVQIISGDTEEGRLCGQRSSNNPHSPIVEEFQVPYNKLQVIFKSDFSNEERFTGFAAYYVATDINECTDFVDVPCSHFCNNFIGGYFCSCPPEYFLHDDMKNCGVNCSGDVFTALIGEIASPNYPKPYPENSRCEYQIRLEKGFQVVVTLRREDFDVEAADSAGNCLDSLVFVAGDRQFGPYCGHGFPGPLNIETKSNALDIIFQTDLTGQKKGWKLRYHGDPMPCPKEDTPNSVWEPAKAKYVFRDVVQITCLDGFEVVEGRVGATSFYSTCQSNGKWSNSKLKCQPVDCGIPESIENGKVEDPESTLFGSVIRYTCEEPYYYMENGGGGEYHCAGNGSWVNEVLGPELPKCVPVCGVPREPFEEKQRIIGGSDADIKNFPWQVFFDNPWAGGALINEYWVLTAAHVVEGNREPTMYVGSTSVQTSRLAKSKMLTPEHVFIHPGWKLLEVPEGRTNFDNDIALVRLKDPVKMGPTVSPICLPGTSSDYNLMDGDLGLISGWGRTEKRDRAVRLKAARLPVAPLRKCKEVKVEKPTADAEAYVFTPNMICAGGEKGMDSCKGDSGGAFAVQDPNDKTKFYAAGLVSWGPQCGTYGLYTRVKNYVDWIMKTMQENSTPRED
Assay: C1s enzymatic assay (hydrolysis of YLGR-Rh110-dPro)
Type: biochemical
Conditions: substrate YLGR-Rh110-dPro 20 μM, 15 min pre-incubation, 60 min RT, fluorescence, read-out: hC1s pIC50 (converted)
Structures can show the parent of a compound that is named as a salt.
Only the number, expressed in nM, is required.

Completed entries (count: 3):
| COMPOUND | MEASURED_TARGET | IC50 (nM) |
| --- | --- | --- |
| Cc1nnc(N)c2ccc(-c3cc(B(O)O)ccc3OC(F)(F)F)cc12 [Example 15] | human C1s protein (Homo sapiens) | 1.7 |
| Nc1cnnc2cc(-c3cc(B(O)O)ccc3OCC(F)(F)F)ccc12 [Example 118, Formic Acid Salt] | human C1s protein (Homo sapiens) | 1.1 |
| Nc1cnnc2cc(-c3cc(B(O)O)c4occc4c3)ccc12 [Example 149, Formic Acid Salt] | human C1s protein (Homo sapiens) | 0.603 |

Now for a further compound.
IC50 for COc1cc(C#N)c(B(O)O)cc1-c1ccc2c(N)nnc(C)c2c1 [Example 116] ?
2.24
